Activity: 300 mg/kg: recorded values
tested on: mice; assay: testing of dioxapiperazine compounds in mice (Example 7); format: in vivo; parameters: key: 300 mg/kg / Activity: 100 mg/kg / Activity: 30 mg/kg: 0 (inactive); 1: Activity on scale of 0 (inactive) to 4.; 2: Activity on scale of 0 (inactive) to 4.; 3: Activity on scale of 0 (inactive) to 4.; Activity on scale of 0 (inactive) to 4; conditions: mice, 300 mg/kg, 30 minutes and four hours after administration
QUANTITY_NAME: Activity: 300 mg/kg

[[record]]
molecule = "C[C@@H]1NC(=O)[C@H](c2ccccc2)NC1=O [c/L-Peg-L-Ala]"
quantity_name = "Activity: 300 mg/kg"
assay_result = 0

[[record]]
molecule = "CC1NC(=O)C(c2ccc(O)cc2)NC1=O [c/D-(p-OH)-Peg-L-Ala]"
quantity_name = "Activity: 300 mg/kg"
assay_result = 0

[[record]]
molecule = "O=C1CNC(=O)[C@@H](c2ccccc2)N1 [c/D-Peg-Gly]"
quantity_name = "Activity: 300 mg/kg"
assay_result = 2

[[record]]
molecule = "NCCC1NC(=O)C(c2ccccc2)NC1=O [c/D-Peg-L-diaminobutyric acid]"
quantity_name = "Activity: 300 mg/kg"
assay_result = 0

[[record]]
molecule = "C[C@@H]1NC(=O)[C@@H](c2ccccc2)NC1=O [c/D-Peg-L-Ala, Cyclo-D-phenylglycine-L-alanine]"
quantity_name = "Activity: 300 mg/kg"
assay_result = 4

[[record]]
molecule = "CSCCC1NC(=O)C(c2ccccc2)NC1=O [c/D-Peg-D-Met]"
quantity_name = "Activity: 300 mg/kg"
assay_result = 0

[[record]]
molecule = "NCCCC1NC(=O)C(c2ccccc2)NC1=O [c/D-Peg-L-Ornithine (Orn)]"
quantity_name = "Activity: 300 mg/kg"
assay_result = 0

[[record]]
molecule = "CSCCC1NC(=O)C(c2ccccc2)NC1=O [c/D-Peg-L-Met]"
quantity_name = "Activity: 300 mg/kg"
assay_result = 1

[[record]]
molecule = "NCCC[C@H]1NC(=O)[C@@H](c2ccccc2)NC1=O [c/D-Peg-D-Orn]"
quantity_name = "Activity: 300 mg/kg"
assay_result = 0

[[record]]
molecule = "NCCCCC1NC(=O)C(c2ccc(O)cc2)NC1=O [c/D-(p-OH)-Peg-L-Lys]"
quantity_name = "Activity: 300 mg/kg"
assay_result = 0

[[record]]
molecule = "NCCCCC1NC(=O)C(c2ccccc2)NC1=O [c/D-Peg-D-Lys]"
quantity_name = "Activity: 300 mg/kg"
assay_result = 0

[[record]]
molecule = "N=C(N)NCCC[C@@H]1NC(=O)[C@@H](c2ccccc2)NC1=O [c/D-Peg-L-Arg]"
quantity_name = "Activity: 300 mg/kg"
assay_result = 0

[[record]]
molecule = "NCCCCC1NC(=O)C(c2ccccc2)NC1=O [c/D-Peg-L-Lys]"
quantity_name = "Activity: 300 mg/kg"
assay_result = 1

